# credit: ChEMBL document CHEMBL1201862

Tested on: K562
Assay: NCI tumour cell line growth inhibition, 48 h
The source made the active and inactive calls. No stated cut-off is given here; in the data, active = GI50 up to about 1.1 µM and inactive = higher. Non-standard residues stand in square brackets, D forms with d. Residues, ends and D or L forms follow the SMILES beside them. ξ: configuration not given here. Pen = CC(C)(S)[C@H](N)C(=O)O; ξL = CC(C)CC(N)C(=O)O
measuredEndpoint: GI50

1) CSCC[C@H](NC(=O)C(CC(C)C)NC(=O)[C@H](Cc1c[nH]cn1)NC(=O)CNC(=O)[C@@H](NC(=O)[C@@H](C)NC(=O)[C@H](Cc1c[nH]c2ccccc12)NC(=O)[C@H](CCC(N)=O)NC(=O)[C@@H](N)CC(N)=O)C(C)(C)SC)C(N)=O (some centres undefined) (H-NQW[dA][Pen](Me)GH[ξL]M-NH2) :: > 100 µM (inactive)
2) O=C(NCC(C(=O)OCc1ccccc1)C(=O)OCc1ccccc1)OCc1ccccc1 :: 60.1 µM (inactive)
3) COC(=O)C(Cc1ccccc1)/N=C/c1c(O)c(O)c(C(C)C)c2cc(C)c(-c3c(C)cc4c(C(C)C)c(O)c(O)c(/C=N/C(Cc5ccccc5)C(=O)OC)c4c3O)c(O)c12 (centres undefined) :: 18.7 µM (inactive)
4) C[n+]1[se]c2ccccc2c1Cl :: 36.4 µM (inactive)
5) c1ccc2c(c1)SCCc1cn[nH]c1-2 :: > 100 µM (inactive)
6) O=C(OCC1OC(n2nc(Cn3nnc(-c4cccnc4)n3)n(-c3cccc4ccccc34)c2=S)C(OC(=O)c2ccccc2)C1OC(=O)c1ccccc1)c1ccccc1 (centres undefined) :: > 100 µM (inactive)
7) O=C1c2ccccc2-c2ccc(/N=N/c3c(O)ccc4ccccc34)cc21 :: > 100 µM (inactive)
8) O=c1[nH]nc(Cc2ccccc2)n1/N=C\c1ccccc1 :: > 100 µM (inactive)
9) COC(=O)n1c(CBr)c(Br)c2ccccc21 :: 25.4 µM (inactive)
